Reference for the values: PubChem BioAssay AID493238

- Tested on: U2OS VEGF mRNA induction, RT-PCR
- Assay Text: activators raising VEGF transcript levels – cell-based, U2OS, RT-PCR, dry powder, set 2, orthogonal assay for HIF pathway activator project, dose response (AID 493238)
Activity calls are given as the source filed them.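 The calls were made as follows: active = VEGF mRNA rise whose fitted curve reaches 40% activation within the highest concentration tested on that sample; inactive = the rest, including effects opposite to expected.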
Metric Name: AC40

INSERT INTO assay_data (compound, reported_measurement) VALUES
  ('O=C(c1cc(-c2ccccc2)on1)N1CCN(c2ccncc2)CC1', '> 38 µM (inactive)'),
  ('c1ccc(-c2nnc(-c3ccccn3)nc2NCC2CC2)cc1', '2.4 µM'),
  ('O=C(NCCCO)c1cc(-c2ccccc2)on1', '11.5 µM'),
  ('c1ccc(-c2nnc(-c3ccccn3)nc2NCc2cccnc2)cc1', '2.84 µM'),
  ('c1ccc(-c2nnc(-c3ccccn3)nc2NCCN2CCOCC2)cc1', '8.15 µM'),
  ('O=C(Nc1cn2ccccc2n1)c1cc(-c2ccccc2)on1', '18.6 µM'),
  ('c1ccc(-c2nnc(-c3ccccn3)nc2NCCc2ccccn2)cc1', '5.54 µM'),
  ('c1ccc(-c2nnc(-c3ccccn3)nc2NCc2ccccn2)cc1', '4.53 µM'),
  ('CC1CN(Cc2ccc(O)c3ncccc23)CC(C)O1 (centres undefined)', '9.15 µM'),
  ('c1ccc(-c2nnc(-c3ccccn3)nc2Nc2nc3ccccc3s2)cc1', '0.51 µM'),
  ('CCCCNC(=O)c1cc(-c2ccccc2)on1', '14.6 µM'),
  ('Cc1ccc(CNc2nc(-c3ccccn3)nnc2-c2ccccc2)cc1', '0.892 µM'),
  ('Cc1ccc(CNc2nc(-c3ccccn3)nnc2-c2ccccc2)cc1C', '0.772 µM'),
  ('C[C@@H](Nc1nc(-c2ccccn2)nnc1-c1ccccc1)c1ccccc1', '2.22 µM'),
  ('Cc1ccc(Nc2nc(-c3ccccn3)nnc2-c2ccccc2)cn1', '6.12 µM'),
  ('c1ccc(-c2nnc(-c3ccccn3)nc2N2CCN(c3ccncc3)CC2)cc1', '2.12 µM'),
  ('Cc1cccc(CNc2nc(-c3ccccn3)nnc2-c2ccccc2)c1', '1.45 µM'),
  ('c1ccc(-c2nnc(-c3ccccn3)nc2NCC2CCOCC2)cc1', '7.58 µM'),
  ('COc1ccc(CNc2nc(-c3ccccn3)nnc2-c2ccccc2)cc1', '1.92 µM'),
  ('O=C(NCCCN1CCOCC1)c1cc(-c2ccccc2)on1', '23 µM'),
  ('Cn1c(-c2ccccc2)cnc1NC(=O)c1cc(-c2ccccc2)on1', '35.2 µM'),
  ('Oc1ccc(CNC2CCc3ccccc32)c2cccnc12 (centres undefined)', '35.1 µM'),
  ('CN(C)c1nc(-c2ccccn2)nnc1-c1ccccc1', '8.23 µM'),
  ('Oc1ccc(CNC2Cc3ccccc3C2)c2cccnc12', '10.7 µM'),
  ('N#CC1(c2ccccc2)CCN(Cc2ccc(O)c3ncccc23)CC1', '28.3 µM'),
  ('CC(C)(C)CCNC(=O)c1cc(-c2ccccc2)on1', '> 38 µM (inactive)'),
  ('Cn1c(-c2ccccc2)cnc1Nc1nc(-c2ccccn2)nnc1-c1ccccc1', '3.33 µM'),
  ('c1ccc(-c2nnc(-c3ccccn3)nc2NCCCN2CCOCC2)cc1', '6.5 µM'),
  ('O=C(NCCN1CCOCC1)c1cc(-c2ccccc2)on1', '28.8 µM');
